molecular target: acetylcholine muscarinic M1 receptor (Homo sapiens); construct: expressed in transfected cells; host or cells: CHOnfat cells (CHO cells with an NFAT reporter) expressing hM1, kept under Geneticin selection; test: muscarinic FLIPR assay: intracellular calcium in CHOnfat/hM1 cells, potentiation of EC20 acetylcholine; assay type: cell-based; details: Table 2; CHOnfat/hM1 cells, FLIPR, EC20 acetylcholine (3 nM final); read-out: M1 Pot.
Entries annotated with measured EC50
Supply the numeric figure in nM, leaving out any unit text.

Exercise: State its EC50 for this molecule: "N#CC1(c2ccccc2)CCN(Cc2cc3c(c4ncccc24)CN([C@H]2CCCC[C@@H]2O)C3=O)CC1"
Solution: 14

Exercise: State its EC50 for this molecule: O=C1c2cc(CN3CCC(O)(c4ccncc4)CC3)c3cccnc3c2CN1C1CCCCC1O (stereo not drawn)
Solution: 510

Attention now shifts to the item below.
Exercise: State its EC50 for this molecule: Cc1ccnc(C2(C#N)CCN(Cc3cc4c(c5ncccc35)CN(C3CCCCC3O)C4=O)CC2)c1 (stereo not drawn)
Solution: 4.7

###

Biological target: acetylcholine muscarinic M1 receptor (Homo sapiens)
Construct: expressed in transfected cells; host or cells: CHOnfat cells (CHO cells with an NFAT reporter) expressing hM1, kept under Geneticin selection
Sequence (P11229 1-460): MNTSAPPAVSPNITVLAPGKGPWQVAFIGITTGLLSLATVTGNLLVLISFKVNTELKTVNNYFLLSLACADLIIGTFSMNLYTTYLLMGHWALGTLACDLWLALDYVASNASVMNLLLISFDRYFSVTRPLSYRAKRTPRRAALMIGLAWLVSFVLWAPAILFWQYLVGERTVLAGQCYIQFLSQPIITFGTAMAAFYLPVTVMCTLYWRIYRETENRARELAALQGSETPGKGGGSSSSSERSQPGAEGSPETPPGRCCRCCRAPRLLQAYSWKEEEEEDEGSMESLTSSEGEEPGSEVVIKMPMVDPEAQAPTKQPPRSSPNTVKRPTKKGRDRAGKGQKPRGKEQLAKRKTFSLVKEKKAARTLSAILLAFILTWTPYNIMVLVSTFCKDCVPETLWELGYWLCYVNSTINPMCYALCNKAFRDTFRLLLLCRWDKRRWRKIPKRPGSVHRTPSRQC
Assay: muscarinic FLIPR assay: intracellular calcium in CHOnfat/hM1 cells, potentiation of EC20 acetylcholine
Type: cell-based
Conditions: Table 1; CHOnfat/hM1 cells, FLIPR, EC20 acetylcholine (3 nM final); read-out: M1 Pot.
Response field label: string, one of MET (EC50 strictly below 70 nM) or NOT MET.

Exercise: is_below(EC50, 70 nM) for "O=C1c2cc(CN3CCN(c4ccccn4)CC3)c3ccccc3c2CN1c1ccccc1F" ?
Solution: NOT MET

Exercise: is_below(EC50, 70 nM) for O=C1c2cc(CN3CC(O)C(F)C3)c3ccccc3c2CN1C1CCCCC1O (centres unmarked) ?
Solution: NOT MET

Exercise: is_below(EC50, 70 nM) for "N#CC1(c2cnccn2)CCN(Cc2cc3c(c4ccccc24)CN([C@H]2CCCC[C@@H]2O)C3=O)CC1" ?
Solution: MET

Exercise: is_below(EC50, 70 nM) for "CN1CCN(Cc2cc3c(c4ccccc24)CN([C@H]2CCCC[C@@H]2O)C3=O)CC1" ?
Solution: NOT MET

Exercise: is_below(EC50, 70 nM) for CC(=O)N1CCN(Cc2cc3c(c4ccccc24)CN(C2CCCCC2O)C3=O)CC1 (centres unmarked) ?
Solution: NOT MET

Others:
Exercise: is_below(EC50, 70 nM) for "Cn1cc(N2CCN(Cc3cc4c(c5ccccc35)CN(c3ccccc3F)C4=O)CC2)cn1" ?
Solution: NOT MET

Exercise: is_below(EC50, 70 nM) for CC1(C)CCN(Cc2cc3c(c4ccccc24)CN(C2CCCCC2O)C3=O)CC1 (centres unmarked) ?
Solution: NOT MET

Exercise: is_below(EC50, 70 nM) for "N#CC1(c2ccccc2Cl)CCN(Cc2cc3c(c4ccccc24)CN([C@H]2CCCC[C@@H]2O)C3=O)CC1" ?
Solution: MET

Exercise: is_below(EC50, 70 nM) for O=C1c2cc(CN3CCCC(F)(F)C3)c3ccccc3c2CN1C1CCCCC1O (centres unmarked) ?
Solution: NOT MET

###

Entries annotated with measured EC50
target: acetylcholine muscarinic M1 receptor (Homo sapiens, UniProt P11229); construct: expressed in transfected cells; host or cells: CHOnfat cells (CHO cells with an NFAT reporter) expressing hM1, kept under Geneticin selection; assay: muscarinic FLIPR assay: intracellular calcium in CHOnfat/hM1 cells, potentiation of EC20 acetylcholine; format: cell-based; details: Table 1; CHOnfat/hM1 cells, FLIPR, EC20 acetylcholine (3 nM final); read-out: M1 Pot.
Supply the numeric figure in nM, leaving out any unit text.

For orientation, consider the following solved cases.
Exercise: State its EC50 for this compound: "O=C1c2cc(CN3CCN(c4ccccc4)CC3)c3ccccc3c2CN1[C@H]1CCCC[C@@H]1O"
Solution: 72

Exercise: State its EC50 for this compound: "CS(=O)(=O)c1ccc(N2CCN(Cc3cc4c(c5ccccc35)CN([C@H]3CCCC[C@@H]3O)C4=O)CC2)cc1"
Solution: 47

Exercise: State its EC50 for this compound: "Cc1ccccc1C1(C#N)CCN(Cc2cc3c(c4ccccc24)CN([C@@H]2CCCC[C@@H]2O)C3=O)CC1"
Solution: 107

Exercise: State its EC50 for this compound: "N#CC1(c2ccccn2)CCN(Cc2cc3c(c4ccccc24)CN(c2ccccc2F)C3=O)CC1"
Solution: 650

Exercise: State its EC50 for this compound: O=C1c2cc(CN3CCC(F)(F)CC3)c3ccccc3c2CN1C1CCCCC1O (centres unmarked)
Solution: 12

Others:
Exercise: State its EC50 for this compound: "N#CC1(c2cccnn2)CCN(Cc2cc3c(c4ccccc24)CN([C@H]2CCCC[C@@H]2O)C3=O)CC1"
Solution: 27

Exercise: State its EC50 for this compound: O=C1c2cc(CN3CCCC(F)C3)c3ccccc3c2CN1C1CCCCC1O (centres unmarked)
Solution: 320

Exercise: State its EC50 for this compound: "N#CC1CCN(Cc2cc3c(c4ccccc24)CN([C@H]2CCCC[C@@H]2O)C3=O)CC1"
Solution: 93
